Ref: ChEMBL document CHEMBL5321232

Each record here notes measured IC50.
# method: Antiproliferative activity against human EU-1 cells assessed as inhibition of cell growth incubated for 44 hrs by WST assay
# Format: functional, cell-based
# condition label: EU-1, 44 h

compound	IC50
Cc1ccc(NS(=O)(=O)c2ccc3c(c2)C2OCCC2C(c2ccc4c(c2)CCO4)N3)cc1C (stereo not drawn)	> 10 µM
CC(=O)N1CCC(C2Nc3ccc(S(=O)(=O)Nc4ccc(C)c(C)c4)cc3C3OCCC32)CC1 (stereo not drawn)	> 10 µM

Would you kindly share the measured IC50 for O=S(=O)(Nc1ccc(C(F)(F)F)c(C(F)(F)F)c1)c1ccc2c(c1)C1OCCC1C(C1CCCCC1)N2 (stereo not drawn) ? > 10 µM
